- tgt: ZmDRIK1-K217-P492 (Zea mays)
- Construct: kinase domain, K217-P492
- Sequence (C0P4K9 1-514): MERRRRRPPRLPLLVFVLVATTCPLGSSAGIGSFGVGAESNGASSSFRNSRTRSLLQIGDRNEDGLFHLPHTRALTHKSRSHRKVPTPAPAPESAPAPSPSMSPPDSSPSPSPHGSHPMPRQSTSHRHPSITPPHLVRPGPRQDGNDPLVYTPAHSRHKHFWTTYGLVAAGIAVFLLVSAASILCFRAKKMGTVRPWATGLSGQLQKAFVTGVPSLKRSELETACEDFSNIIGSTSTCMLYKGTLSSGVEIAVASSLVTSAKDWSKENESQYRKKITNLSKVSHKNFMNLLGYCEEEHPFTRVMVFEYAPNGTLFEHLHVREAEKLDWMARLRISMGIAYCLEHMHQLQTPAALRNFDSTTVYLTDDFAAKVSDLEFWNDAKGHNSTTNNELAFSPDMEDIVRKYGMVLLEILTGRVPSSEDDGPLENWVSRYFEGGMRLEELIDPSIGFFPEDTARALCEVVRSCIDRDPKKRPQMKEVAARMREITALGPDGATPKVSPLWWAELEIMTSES
- assayNotes: biochemical
- studyConditions: read-out: dTm B, sheet ZmDRIK1-K217-P492;; DSF, Boltzmann fit, 0.1% DMSO
measuredQuantity: ΔTm at 10 µM (°C)

compound: CC(C)(C)c1cnc(CSc2cnc(NC(=O)C3CCNCC3)s2)o1
ΔTm at 10 µM, °C: -0.977
--
compound: CCOc1cc2ncc(C#N)c(Nc3ccc(F)c(Cl)c3)c2cc1NC(=O)/C=C/CN(C)C [Pelitinib (EKB-569)]
ΔTm at 10 µM, °C: -0.854
--
compound: CCN1CCN(C(=O)Cc2ccc(Nc3ncc(F)c(Nc4ccc(C(=O)Nc5ccccc5Cl)cc4)n3)cc2)CC1
ΔTm at 10 µM, °C: -1.33
--
compound: O=C(Nc1ccc(OC(F)(F)F)cc1)c1sccc1NCc1ccnc2ccccc12
ΔTm at 10 µM, °C: -0.971

----------
- tgt: ZmDRIK1 (DROUGHT RESPONSIVE INACTIVE KINASE 1), kinase domain (Zea mays, UniProt C0P4K9)
- Construct: gene ZEAMMB73_Zm00001d028770; ZmDRIK1-KD R187-S514 (kinase domain)
- assayNotes: biochemical
- studyConditions: read-out: dTm B, sheet ZmDRIK1-R187-S514;; DSF, Boltzmann fit, 0.1% DMSO
measuredQuantity: ΔTm at 10 µM (°C)

compound: CNC(=O)c1ccccc1Sc1ccc2c(/C=C/c3ccccn3)n[nH]c2c1 [Axitinib]
tgt: ZmDRIK1 (DROUGHT RESPONSIVE INACTIVE KINASE 1), kinase domain (Zea mays, UniProt C0P4K9)
valueUnits: °C
recordedMeasurement: -0.702

A = Cc1nc(NC(=O)N2CCC[C@H]2C(N)=O)sc1-c1csc(C(C)(C)C)n1 [A66]
B = N#C/C(=C\c1ccc(O)c(O)c1)C(=O)NCc1ccccc1 [AG-490 (Tyrphostin B42)]
Higher ΔTm at 10 µM between A and B ? Mark your answer with the label of the selected entry. A
(A: -0.746 °C, B: -1.15 °C)

----------
- tgt: ZmDRIK1-R187-P492 (Zea mays)
- Construct: kinase domain, R187-P492
- assayNotes: biochemical
- studyConditions: read-out: dTm B, DSF, Boltzmann fit, 0.1% DMSO
measuredQuantity: ΔTm at 10 µM (°C)

compound: CC(C)(C)n1nc(-c2ccc(Cl)cc2)c2c(N)ncnc21
ΔTm at 10 µM / °C: -0.394

compound: CNc1nc(-c2ccc3c(N)n[nH]c3c2)cc(N2C[C@@H](C(=O)NC3CCCCC3)CC[C@H]2C)n1
ΔTm at 10 µM / °C: -0.4

compound: CNc1nc(Nc2cnn([C@H]3CCN(C4COC4)C[C@@H]3F)c2Cl)ncc1C(F)(F)F
ΔTm at 10 µM / °C: -0.334

compound: CCN(CC)CCNC(=O)c1c(C)[nH]c(/C=C2\C(=O)Nc3ccc(F)cc32)c1C [Sunitinib Malate]
ΔTm at 10 µM / °C: -0.348

compound: Oc1cccc(-c2nc(N3CCOCC3)c3oc4ncccc4c3n2)c1
ΔTm at 10 µM / °C: -0.366

----------
- tgt: ZmDRIK1 (DROUGHT RESPONSIVE INACTIVE KINASE 1), kinase domain (Zea mays)
- Construct: gene ZEAMMB73_Zm00001d028770; ZmDRIK1-KD R187-S514 (kinase domain)
- assayNotes: biochemical
- studyConditions: read-out: dTm B, sheet ZmDRIK1-R187-S514;; DSF, Boltzmann fit, 0.1% DMSO
measuredQuantity: ΔTm at 10 µM (°C)

Use the examples below as a reference point.
molecule: CN1CCN(C2CCN(C(=O)Nc3cc(Oc4ccc(NC(=O)C5(C(=O)Nc6ccc(F)cc6)CC5)c(F)c4)ccn3)CC2)CC1 [Golvatinib (E7050)]
ΔTm at 10 µM / °C: -0.382
//
molecule: O=C(O)c1ccc(Nc2ncc3c(n2)-c2ccc(Cl)cc2C(c2c(F)cccc2F)=NC3)cc1
ΔTm at 10 µM / °C: -0.958
//
molecule: NC(=O)c1ncn([C@@H]2O[C@H](CO)[C@@H](O)[C@H]2O)c1N
ΔTm at 10 µM / °C: -0.564

I = COc1cc(Nc2ncc3c(n2)-c2ccc(Cl)cc2C(c2c(F)cccc2OC)=NC3)ccc1C(=O)O
II = COc1cc2c(Oc3ccc4[nH]c(C)cc4c3F)ncnc2cc1OCCCN1CCCC1
Given the listed records, identify the one among I and II with higher ΔTm at 10 µM. Select an item and report its label. II

Hey, just so you know, these numbers are from paper PMC7158045.
